- testedOn: AHR (Homo sapiens, UniProt P35869)
- Sequence (P35869 11-848): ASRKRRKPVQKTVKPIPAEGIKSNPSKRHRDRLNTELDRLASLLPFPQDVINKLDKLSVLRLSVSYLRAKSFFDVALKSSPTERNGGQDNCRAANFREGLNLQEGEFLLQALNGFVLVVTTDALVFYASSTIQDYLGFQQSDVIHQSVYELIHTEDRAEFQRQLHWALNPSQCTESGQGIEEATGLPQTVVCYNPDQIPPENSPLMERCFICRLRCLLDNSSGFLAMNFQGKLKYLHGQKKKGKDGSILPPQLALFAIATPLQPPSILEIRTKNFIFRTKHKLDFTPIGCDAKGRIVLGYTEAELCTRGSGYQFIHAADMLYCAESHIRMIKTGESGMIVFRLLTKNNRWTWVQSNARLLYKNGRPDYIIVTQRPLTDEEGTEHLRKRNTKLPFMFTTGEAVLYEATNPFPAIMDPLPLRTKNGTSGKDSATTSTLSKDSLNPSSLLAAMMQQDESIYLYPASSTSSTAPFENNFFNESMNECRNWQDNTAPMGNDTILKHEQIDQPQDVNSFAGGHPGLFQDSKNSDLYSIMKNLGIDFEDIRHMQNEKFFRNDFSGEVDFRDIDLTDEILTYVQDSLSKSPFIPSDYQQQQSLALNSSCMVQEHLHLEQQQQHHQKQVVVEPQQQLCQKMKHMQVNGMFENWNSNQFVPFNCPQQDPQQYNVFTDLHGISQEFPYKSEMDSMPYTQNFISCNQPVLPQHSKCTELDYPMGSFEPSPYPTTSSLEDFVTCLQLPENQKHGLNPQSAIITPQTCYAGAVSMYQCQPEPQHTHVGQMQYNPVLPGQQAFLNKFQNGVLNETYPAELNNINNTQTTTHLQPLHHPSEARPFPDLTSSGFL
- assayProcedure: In vitro assay 1: antagonism in human cell line (transactivation assay, kynurenic acid prestimulated)
- protocolConditions: Assay 1: AHR-luc Hum Antagonism IC50 [M], 150 μM kynurenic acid, 20 hours, firefly luciferase
Documented IC50 across a set of compounds
Report as a plain number; the unit M is understood.

Here is how some compounds turned out for IC50.
C[C@H](O)[C@H](CO)NC(=O)c1cc(-c2ccc(Cl)cc2)nn(-c2cccc(F)c2)c1=O [Example 132]: 1.36e-07
COC(=O)C(C)(C)CNC(=O)c1cc(-c2ccc(Cl)cc2)nn(-c2cccc(F)c2)c1=O [Example 398]: 4.2e-07
CC(C)(C)OC(=O)N1C[C@H](O)[C@H](NC(=O)c2cc(-c3ccc(Cl)cc3)nn(-c3cccc(F)c3)c2=O)C1 [Example 387]: 3.5e-07

**Q:** Please state recorded IC50 (tested on AHR (Homo sapiens, UniProt P35869)) of C[C@@H](CO)NC(=O)c1cc(-c2ccc(Cl)cc2)nn(-c2cc(Cl)cc(Cl)c2)c1=O [Example 309]
**A:** 9.87e-07

* * *

- testedOn: AHR (Homo sapiens, UniProt P35869)
- assayProcedure: In vitro assay 2: agonism in human cell line (transactivation assay)
- protocolConditions: read-out: Assay 2: AHR-luc Hum Agonism IC50, no kynurenic acid, 20 hours, firefly luciferase
We begin with a simple list: items and their reported IC50.

# count of solved cases: 2
O=C(NCC(O)C(F)(F)F)c1cc(-c2ccc(Cl)cc2)nn(-c2ccccc2)c1=O (single isomer, unassigned): > 20 µM
O=C(NCC(O)C1CC1)c1cc(-c2ccc(Cl)cc2)nn(-c2cccc(F)c2)c1=O (single isomer, unassigned; (+)): > 20 µM

**Q:** Form field: reported IC50 of O=C(NC(CO)CCO)c1cc(-c2ccc(Cl)cc2)nn(-c2cccc(F)c2)c1=O (single isomer, unassigned; (-))
**A:** > 20 µM

* * *

Recorded IC50, one value per entry.
- testedOn: AHR (Homo sapiens, UniProt P35869)
- assayProcedure: In vitro assay 1: antagonism in human cell line (transactivation assay, kynurenic acid prestimulated)
- protocolConditions: Assay 1: AHR-luc Hum Antagonism IC50 [M], 150 μM kynurenic acid, 20 hours, firefly luciferase
Respond numerically; units are M and should not be typed.

Reference set (2 entries):
C[C@H](O)[C@H](C)NC(=O)c1cc(-c2ccc(OC(F)F)cc2)nn(-c2cccc(F)c2)c1=O (relative stereo): 8.07e-08
C[C@@H](O)CCNC(=O)c1cc(-c2ccc(C(F)(F)F)cc2)nn(-c2cccc(F)c2)c1=O (single isomer, unassigned): 1.21e-07

**Q:** # value lookup — system AHR (Homo sapiens, UniProt P35869), readout IC50, item O=C(NCC(O)C(F)(F)F)c1cc(-c2ccc(OC(F)F)cc2)nn(-c2cccc(F)c2)c1=O (single isomer, unassigned) [Example 122]
**A:** 1.38e-07

**Q:** Recall the recorded IC50 for `N#C[C@@H](CO)NC(=O)c1cc(-c2ccc(Cl)cc2)nn(-c2cccc(F)c2)c1=O` with AHR (Homo sapiens, UniProt P35869) and state it.
**A:** 2.7e-08

**Q:** Provide the documented IC50 with AHR (Homo sapiens, UniProt P35869) as the system for O=C(NC(CO)CF)c1cc(-c2ccc(Cl)cc2)nn(-c2cccc(F)c2)c1=O (racemic)
**A:** 2.43e-08

**Q:** Item: O=C(N[C@@H]1COC[C@@H]1O)c1cc(-c2ccc(C(F)(F)F)cc2)nn(-c2cccc(F)c2)c1=O (single isomer, unassigned) [Example 345] Test system: AHR (Homo sapiens, UniProt P35869) Read-out: IC50 Value: ?
**A:** 1.58e-08

* * *

- testedOn: AHR (Homo sapiens)
- Sequence (P35869 11-848): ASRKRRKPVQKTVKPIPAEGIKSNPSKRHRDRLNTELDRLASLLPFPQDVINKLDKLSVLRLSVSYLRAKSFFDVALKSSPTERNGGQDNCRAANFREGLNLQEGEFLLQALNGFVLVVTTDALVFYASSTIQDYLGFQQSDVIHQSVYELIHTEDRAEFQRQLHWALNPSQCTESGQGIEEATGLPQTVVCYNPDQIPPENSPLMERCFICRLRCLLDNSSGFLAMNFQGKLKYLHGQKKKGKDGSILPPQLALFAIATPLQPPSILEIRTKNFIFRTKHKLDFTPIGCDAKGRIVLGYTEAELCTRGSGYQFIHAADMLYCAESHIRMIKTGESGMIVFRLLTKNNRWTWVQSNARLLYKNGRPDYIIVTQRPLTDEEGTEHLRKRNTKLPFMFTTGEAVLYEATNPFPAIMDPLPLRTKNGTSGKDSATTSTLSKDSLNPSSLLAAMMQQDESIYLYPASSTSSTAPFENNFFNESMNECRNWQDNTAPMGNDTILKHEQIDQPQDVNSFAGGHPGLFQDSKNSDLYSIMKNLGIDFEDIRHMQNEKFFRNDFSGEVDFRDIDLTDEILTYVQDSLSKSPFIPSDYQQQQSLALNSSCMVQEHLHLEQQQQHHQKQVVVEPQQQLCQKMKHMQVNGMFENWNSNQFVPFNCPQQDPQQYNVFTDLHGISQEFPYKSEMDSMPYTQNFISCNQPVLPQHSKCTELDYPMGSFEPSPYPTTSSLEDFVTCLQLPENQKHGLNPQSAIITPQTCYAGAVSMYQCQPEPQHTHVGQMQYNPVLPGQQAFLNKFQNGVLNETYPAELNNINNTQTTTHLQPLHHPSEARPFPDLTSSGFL
- assayProcedure: In vitro assay 1: antagonism in human cell line (transactivation assay, kynurenic acid prestimulated)
- protocolConditions: Assay 1: AHR-luc Hum Antagonism IC50 [M], 150 μM kynurenic acid, 20 hours, firefly luciferase
resultType: IC50 (M)
Write down the numeric answer in M and omit the unit.

O=C(NC(CO)C(F)(F)F)c1cc(-c2ccc(OC(F)(F)F)cc2)nn(-c2cccc(F)c2)c1=O (single isomer, unassigned) [Example 170]: 1.19e-08
O=C(N[C@@H]1CCCC[C@@H]1O)c1cc(-c2ccc(Cl)cc2)nn(-c2cccc(F)c2)c1=O (relative stereo) [Example 103]: 1.59e-08

**Q:** Find the recorded IC50 belonging to Cc1ccc(-c2cc(C(=O)NCC(O)C(F)(F)F)c(=O)n(-c3cccc(F)c3)n2)cc1 (single isomer, unassigned; enantiomer 2) [Example 6] and report it.
**A:** 6.58e-08

* * *

List of IC50 values.
- testedOn: AHR (Homo sapiens)
- assayProcedure: In vitro assay 1: antagonism in human cell line (transactivation assay, kynurenic acid prestimulated)
- protocolConditions: Assay 1: AHR-luc Hum Antagonism IC50 [M], 150 μM kynurenic acid, 20 hours, firefly luciferase
Give the value in M but do not write M after it.

Take a look at these entries with their results.
O=C(NC(CO)C1CCCO1)c1cc(-c2ccc(Cl)cc2)nn(-c2cccc(F)c2)c1=O (single isomer, unassigned) [Example 318]: 5.34e-08
C[C@@H](O)[C@@H](C)NC(=O)c1cc(-c2ccc(Cl)cc2)nn(-c2cccc(F)c2)c1=O: 4.72e-08
C[C@H](O)CCNC(=O)c1cc(-c2ccc(C(F)(F)F)cc2)nn(-c2cccc(F)c2)c1=O: 9.73e-08
O=C(NC[C@@H](O)CO)c1cc(-c2ccc(Cl)cc2)nn(-c2cccc(F)c2)c1=O: 2.84e-07

**Q:** # get_value(readout='IC50', item= O=C(N[C@@H]1COC[C@@H]1O)c1cc(-c2ccc(C(F)(F)F)cc2)nn(-c2cccc(F)c2)c1=O (single isomer, unassigned) [Example 344] )
**A:** 5.84e-09

**Q:** Fill in: IC50 of CC(NC(=O)c1cc(-c2ccc(Cl)cc2)nn(-c2cccc(F)c2)c1=O)C(O)CO (stereo not shown) [Example 337] is ___
**A:** 4.58e-08

**Q:** Look up IC50: O=C(NC(CCO)C(F)(F)F)c1cc(-c2ccc(Cl)cc2)nn(-c2cccc(F)c2)c1=O (single isomer, unassigned; (-)) [Example 342]
**A:** 4.46e-07
